- tested_system: TRα (Homo sapiens, UniProt P10827)
- Construct: 5 μL of 4×TR beta/alfa-LBD; purchased Invitrogen PV4687
- Sequence (P10827 163-410 isoform P10827-2 limits assumed, other chains not shown): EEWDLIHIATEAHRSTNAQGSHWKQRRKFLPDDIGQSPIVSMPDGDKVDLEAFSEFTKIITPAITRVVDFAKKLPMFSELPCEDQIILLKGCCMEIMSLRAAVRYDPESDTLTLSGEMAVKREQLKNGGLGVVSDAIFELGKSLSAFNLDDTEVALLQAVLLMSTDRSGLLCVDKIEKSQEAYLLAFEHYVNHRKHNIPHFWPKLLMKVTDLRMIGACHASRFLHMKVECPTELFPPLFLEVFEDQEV
- protocol_text: LanthaScreen TR-FRET Thyroid Receptor alfa Coactivator Assay (in vitro binding activity)
- particulars: TR alfa-LBD
endpoint: EC50

Some solved entries appear below for comparison.
Given the molecule N#Cc1nn(-c2cc(Cl)c(Oc3ccc4c(c3)CCN(C=O)C4=O)c(Cl)c2)c(=O)[nH]c1=O [Example 51] , what is its reported EC50?
> 100 µM

Given the molecule CCN1CCc2cc(Oc3c(Cl)cc(-n4nc(C#N)c(=O)[nH]c4=O)cc3Cl)ccc2C1=O [Example 5] , what is its reported EC50?
0.074 µM

Given the molecule CCOC(C)N1CCc2cc(Oc3c(Cl)cc(-n4nc(C#N)c(=O)[nH]c4=O)cc3Cl)ccc2C1=O (centres unmarked) [Example 16] , what is its reported EC50?
0.211 µM

Field: EC50. Fill in for each record below.
1. N#Cc1nn(-c2cc(Cl)c(Oc3ccc4c(c3)CCCNC4=O)c(Cl)c2)c(=O)[nH]c1=O [Example 7]
2. O=C1c2ccc(Oc3c(Cl)cc(-n4ncc(=O)[nH]c4=O)cc3Cl)cc2CCN1Cc1cccc(F)c1 [Example 31]
3. O=C1c2ccc(Oc3c(Cl)cc(-n4ncc(=O)[nH]c4=O)cc3Cl)cc2CCN1Cc1ccc(Cl)cc1 [Example 37]
4. O=C1c2ccc(Oc3c(Cl)cc(-n4ncc(=O)[nH]c4=O)cc3Cl)cc2CCN1Cc1ccc(F)c(F)c1 [Example 30]
5. O=C1c2ccc(Oc3c(Cl)cc(-n4ncc(=O)[nH]c4=O)cc3Cl)cc2CCN1c1ccccc1F [Example 44]
6. O=C1c2ccc(Oc3c(Cl)cc(-n4ncc(=O)[nH]c4=O)cc3Cl)cc2CCN1Cc1cccnc1 [Example 45]

0.95 µM
0.107 µM
> 100 µM
0.093 µM
> 100 µM
> 100 µM

---

- tested_system: TRβ (Homo sapiens)
- Construct: 5 μL of 4×TR beta/alfa-LBD; purchased Invitrogen PV4686
- Sequence (P10828 217-461 limits assumed): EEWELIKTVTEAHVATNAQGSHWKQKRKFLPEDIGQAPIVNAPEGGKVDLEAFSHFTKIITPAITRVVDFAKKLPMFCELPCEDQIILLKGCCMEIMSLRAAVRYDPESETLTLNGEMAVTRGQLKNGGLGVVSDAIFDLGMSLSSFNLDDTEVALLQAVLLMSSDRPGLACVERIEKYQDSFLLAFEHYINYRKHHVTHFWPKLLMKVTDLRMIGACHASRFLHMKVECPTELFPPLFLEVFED
- protocol_text: LanthaScreen TR-FRET Thyroid Receptor beta Coactivator Assay (in vitro binding activity)
- particulars: TR beta-LBD
endpoint: EC50 (µM)
Give bare numbers, in µM.

Given the compound Cc1ccc(CN2CCc3cc(Oc4c(Cl)cc(-n5ncc(=O)[nH]c5=O)cc4Cl)ccc3C2=O)cc1 [Example 21] , what is its reported EC50?
0.019

Given the compound N#Cc1nn(-c2cc(Cl)c(Oc3ccc4c(c3)CCNC4=O)c(Cl)c2)c(=O)[nH]c1=O [Example 1] , what is its reported EC50?
0.26

Given the compound CCOCN1CCc2cc(Oc3c(Cl)cc(-n4nc(C#N)c(=O)[nH]c4=O)cc3Cl)ccc2C1=O [Example 4] , what is its reported EC50?
0.018

Given the compound O=C1c2ccc(Oc3c(Cl)cc(-n4ncc(=O)[nH]c4=O)cc3Cl)cc2CCN1Cc1ccc(C(F)(F)F)cc1 [Example 29] , what is its reported EC50?
0.091

Given the compound O=C1NCCc2cc(Oc3c(Cl)cc(-n4ncc(=O)[nH]c4=O)cc3Cl)ccc21 [Example 17] , what is its reported EC50?
0.034

Given the compound COCCN1CCc2cc(Oc3c(Cl)cc(-n4nc(C#N)c(=O)[nH]c4=O)cc3Cl)ccc2C1=O [Example 10] , what is its reported EC50?
0.049

Given the compound N#Cc1nn(-c2cc(Cl)c(Oc3ccc4c(c3)CCN(Cc3ccccc3)C4=O)c(Cl)c2)c(=O)[nH]c1=O [Example 18] , what is its reported EC50?
0.192

Given the compound CCOC(C)N1CCc2cc(Oc3c(Cl)cc(-n4nc(C#N)c(=O)[nH]c4=O)cc3Cl)ccc2C1=O (stereo not drawn) [Example 16] , what is its reported EC50?
0.022

Field: EC50. Fill in for each record below.
1. O=C1c2ccc(Oc3c(Cl)cc(-n4ncc(=O)[nH]c4=O)cc3Cl)cc2CCN1Cc1cccc(OC(F)(F)F)c1 [Example 43]
2. N#Cc1nn(-c2cc(Cl)c(Oc3ccc4c(c3)CCN(c3ccccn3)C4=O)c(Cl)c2)c(=O)[nH]c1=O [Example 47f]
3. N#Cc1nn(-c2cc(Cl)c(Oc3ccc4c(c3)CCN(Cc3ccc(F)c(F)c3)C4=O)c(Cl)c2)c(=O)[nH]c1=O [Example 30d]
4. O=C1c2ccc(Oc3c(Cl)cc(-n4ncc(=O)[nH]c4=O)cc3Cl)cc2CCN1c1ccccn1 [Example 47]
5. O=C1c2ccc(Oc3c(Cl)cc(-n4ncc(=O)[nH]c4=O)cc3Cl)cc2CCN1Cc1ccccn1 [Example 46]
6. O=C1c2ccc(Oc3c(Cl)cc(-n4ncc(=O)[nH]c4=O)cc3Cl)cc2CCN1c1ccccc1F [Example 44]

1. 0.031
2. 0.214
3. 0.065
4. 0.039
5. 0.035
6. 0.0097

---

- protocol_text: Pharmacokinetic determination in SD rats (i.v. and i.g.)
- Format: in vivo
- particulars: male, Sprague-Dawley (SD), rat, plasma, po, ig, 5 mg/kg
Field: log10 of AUC(0-t). Provide a value for each of the molecules that follow.
In plain terms, each number is the log10 of measured AUC(0-t) in ng·h/mL.

Some solved entries appear below for comparison.
Given the molecule O=C1c2ccc(Oc3c(Cl)cc(-n4ncc(=O)[nH]c4=O)cc3Cl)cc2CCN1Cc1ccc(Cl)cc1 , what is its reported log10 of AUC(0-t)?
5.08

Given the molecule O=C1c2ccc(Oc3c(Cl)cc(-n4ncc(=O)[nH]c4=O)cc3Cl)cc2CCN1Cc1ccccn1 , what is its reported log10 of AUC(0-t)?
4.79

Given the molecule O=C1c2ccc(Oc3c(Cl)cc(-n4ncc(=O)[nH]c4=O)cc3Cl)cc2CCN1c1cccc(F)c1 , what is its reported log10 of AUC(0-t)?
4.10

Given the molecule O=C1c2ccc(Oc3c(Cl)cc(-n4ncc(=O)[nH]c4=O)cc3Cl)cc2CCN1Cc1ccncc1 , what is its reported log10 of AUC(0-t)?
4.34

Given the molecule O=C1c2ccc(Oc3c(Cl)cc(-n4ncc(=O)[nH]c4=O)cc3Cl)cc2CCN1Cc1ccc(C(F)(F)F)cc1 , what is its reported log10 of AUC(0-t)?
5.20

// moving on: another record for log10 of AUC(0-t)
Given the molecule O=C1c2ccc(Oc3c(Cl)cc(-n4ncc(=O)[nH]c4=O)cc3Cl)cc2CCN1c1ccc(F)cc1 , what is its reported log10 of AUC(0-t)?
4.67

---

Field: F. Provide a value for each of the compounds that follow.
- protocol_text: Pharmacokinetic determination in SD rats (i.v. and i.g.)
- Type: in vivo
- particulars: ig, 5 mg/kg
- Description: Test purposes: The following method was used to determine the pharmacokinetics of the compound of the present invention. […] Samples were processed by liquid-liquid extraction, chromatographically separated, quantitatively analyzed by multiple reaction ion monitoring (MRM) on a triple quadrupole tandem mass spectrometer, and the concentration of the results was calculated by instrument quantitative software. […]
Give bare numbers, in %.

Some solved entries appear below for comparison.
Given the compound O=C1c2ccc(Oc3c(Cl)cc(-n4ncc(=O)[nH]c4=O)cc3Cl)cc2CCN1Cc1ccc(C(F)(F)F)cc1 [Example 29] , what is its reported F?
66.2

Given the compound O=C1c2ccc(Oc3c(Cl)cc(-n4ncc(=O)[nH]c4=O)cc3Cl)cc2CCN1Cc1cccnc1 [Example 45] , what is its reported F?
163.9

Given the compound O=C1c2ccc(Oc3c(Cl)cc(-n4ncc(=O)[nH]c4=O)cc3Cl)cc2CCN1Cc1cccc(C(F)(F)F)c1 [Example 34] , what is its reported F?
111

---
Given the compound O=C1c2ccc(Oc3c(Cl)cc(-n4ncc(=O)[nH]c4=O)cc3Cl)cc2CCN1Cc1ccncc1 [Example 24] , what is its reported F?
117.7

---

- protocol_text: Pharmacokinetic determination in SD rats (i.v. and i.g.)
- Format: in vivo
- particulars: ig, 5 mg/kg
endpoint: F (%)
Numbers only, in %.

Given the compound O=C1c2ccc(Oc3c(Cl)cc(-n4ncc(=O)[nH]c4=O)cc3Cl)cc2CCN1c1ccccc1F [Example 44] , what is its reported F?
133.3

Given the compound O=C1c2ccc(Oc3c(Cl)cc(-n4ncc(=O)[nH]c4=O)cc3Cl)cc2CCN1c1cccnc1 [Example 49] , what is its reported F?
138.3

Given the compound O=C1c2ccc(Oc3c(Cl)cc(-n4ncc(=O)[nH]c4=O)cc3Cl)cc2CCN1c1cccc(F)c1 [Example 42] , what is its reported F?
134.8

// moving on: another record for F
Given the compound Cc1ccc(CN2CCc3cc(Oc4c(Cl)cc(-n5ncc(=O)[nH]c5=O)cc4Cl)ccc3C2=O)cc1 [Example 21] , what is its reported F?
81.9

---

- tested_system: TRα (Homo sapiens, UniProt P10827)
- Construct: 5 μL of 4×TR beta/alfa-LBD; purchased Invitrogen PV4687
- protocol_text: LanthaScreen TR-FRET Thyroid Receptor alfa Coactivator Assay (in vitro binding activity)
- particulars: TR alfa-LBD
Field: EC50. Provide a value for each of the molecules that follow.

Some solved entries appear below for comparison.
Given the molecule N#Cc1nn(-c2cc(Cl)c(Oc3ccc4c(c3)CCN(Cc3ccccc3F)C4=O)c(Cl)c2)c(=O)[nH]c1=O [Example 33d] , what is its reported EC50?
> 100 µM

Given the molecule N#Cc1nn(-c2cc(Cl)c(Oc3ccc4c(c3)CCN(Cc3ccc(F)c(F)c3)C4=O)c(Cl)c2)c(=O)[nH]c1=O [Example 30d] , what is its reported EC50?
> 100 µM

Field: EC50. Fill in for each record below.
1. CN1CCc2cc(Oc3c(Cl)cc(-n4nc(C#N)c(=O)[nH]c4=O)cc3Cl)ccc2C1=O
2. N#Cc1nn(-c2cc(Cl)c(Oc3ccc4c(c3)CCN(Cc3cccc(F)c3)C4=O)c(Cl)c2)c(=O)[nH]c1=O [Example 31d]

1: 1.47 µM; 2: > 100 µM

Field: EC50. Fill in for each record below.
1. Cc1ccc(CN2CCc3cc(Oc4c(Cl)cc(-n5nc(C#N)c(=O)[nH]c5=O)cc4Cl)ccc3C2=O)cc1 [Example 21d]
2. N#Cc1nn(-c2cc(Cl)c(Oc3ccc4c(c3)CCN(CC3CCOCC3)C4=O)c(Cl)c2)c(=O)[nH]c1=O
3. COCCN1CCc2cc(Oc3c(Cl)cc(-n4nc(C#N)c(=O)[nH]c4=O)cc3Cl)ccc2C1=O
4. O=C1c2ccc(Oc3c(Cl)cc(-n4ncc(=O)[nH]c4=O)cc3Cl)cc2CCN1Cc1ccccc1
5. O=C1c2ccc(Oc3c(Cl)cc(-n4ncc(=O)[nH]c4=O)cc3Cl)cc2CCN1c1ncccn1
6. O=C1c2ccc(Oc3c(Cl)cc(-n4ncc(=O)[nH]c4=O)cc3Cl)cc2CCN1c1ccncc1
7. O=C1c2ccc(Oc3c(Cl)cc(-n4ncc(=O)[nH]c4=O)cc3Cl)cc2CCN1Cc1cccnn1

1. > 100 µM
2. 0.451 µM
3. 0.206 µM
4. 0.156 µM
5. 0.274 µM
6. 0.558 µM
7. > 100 µM
